- Target Desc: T1, Human CD3eg linker (human)
- T1 construct: Single chain: epsilon and gamma subunits of human CD3 joined by a 29-mer linker, Flag-tag at the C-terminus; also called recombinant human CD3
- T1 chain: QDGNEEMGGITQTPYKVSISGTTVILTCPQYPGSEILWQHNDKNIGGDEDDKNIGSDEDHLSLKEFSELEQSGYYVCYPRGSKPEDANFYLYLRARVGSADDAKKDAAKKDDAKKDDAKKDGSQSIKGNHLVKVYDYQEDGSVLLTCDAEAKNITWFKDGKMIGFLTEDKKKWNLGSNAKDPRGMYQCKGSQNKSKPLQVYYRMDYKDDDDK
- Assay Procedure: Biacore SPR, vs template H183/L072
Result Type: fold change of affinity (fold)
Write the answer as a number in fold, unit excluded.

Please review the following examples before continuing.
{"columns": ["Binder", "Unit String", "fold change of affinity"],
 "data": [
  ["H183/L072 VH A56D (antibody, name in Kabat numbering, V domains shown) VH: QVQLVESGGGLVQPGRSLRLSCAASGFTFSNAWMHWVRQAPGKGLEWVAQIKDKGNAYDAYYAPSVKGRFTISRDDSKNSIYLQMNSLKTEDTAVYYCHYVHYASASTVLPAFGVDAWGQGTTVTVSS VL: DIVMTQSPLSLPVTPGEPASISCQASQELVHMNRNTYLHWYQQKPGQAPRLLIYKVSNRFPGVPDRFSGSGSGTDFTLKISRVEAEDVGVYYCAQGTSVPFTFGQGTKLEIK", "fold", 0.5],
  ["H183/L072 VH N53T (antibody, name in Kabat numbering, V domains shown) VH: QVQLVESGGGLVQPGRSLRLSCAASGFTFSNAWMHWVRQAPGKGLEWVAQIKDKGTAYAAYYAPSVKGRFTISRDDSKNSIYLQMNSLKTEDTAVYYCHYVHYASASTVLPAFGVDAWGQGTTVTVSS VL: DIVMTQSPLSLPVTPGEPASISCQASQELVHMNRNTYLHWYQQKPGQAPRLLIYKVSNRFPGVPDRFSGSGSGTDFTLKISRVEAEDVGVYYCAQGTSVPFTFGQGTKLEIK", "fold", 0.6]
]}

Read the next record carefully.
Q) May I ask what fold change of affinity has been recorded for H183/L072 VH K64L (antibody, name in Kabat numbering, V domains shown) VH: QVQLVESGGGLVQPGRSLRLSCAASGFTFSNAWMHWVRQAPGKGLEWVAQIKDKGNAYAAYYAPSVLGRFTISRDDSKNSIYLQMNSLKTEDTAVYYCHYVHYASASTVLPAFGVDAWGQGTTVTVSS VL: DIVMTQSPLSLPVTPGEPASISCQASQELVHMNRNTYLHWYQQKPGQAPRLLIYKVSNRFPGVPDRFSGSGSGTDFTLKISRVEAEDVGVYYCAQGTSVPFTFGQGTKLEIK ?
A) 1.1

Values were extracted from patent US20210388087A1.
